test system: BDF1 mice, P388 leukemia ip, median survival T/C; assay: NCI In Vivo Anticancer Drug Screen. Data for tumor model P388 Leukemia (intraperitoneal) in B6D2F1 (BDF1) mice; conditions: endpoint: median survival time; dose: 200.0 mg/kg/injection; schedule: Q04DX003 (ip); vehicle: Klucel (hydroxypropylcellulose) (HPC)
Inconclusive results and toxic doses are left out. The calls were made as follows: active = survival T/C of 150% or more; inactive = T/C below 125% in these data.
Reply using exactly one outcome from active, inactive

Answered cases to consult:
CC(C)(C)OC(=O)NNC(c1ccccc1)c1ccccc1 ... inactive
CC(=O)C1CCCC23CC(CC12)C(C)(C)C3OC=O (centres undefined) ... inactive

What call does the record list for O=C(Cc1ccccc1)OCC#CC#CCOC(=O)Cc1ccccc1 ?
inactive

What call does the record list for Cc1ccc(NS(=O)(=O)c2ccc(F)cc2)cc1C ?
inactive

What call does the record list for O=C1c2ccccc2C(=O)N1N(c1ccccc1)c1ccccc1 ?
inactive

What call does the record list for O=C1N(Br)C(=O)C(c2ccc(Cl)cc2)(c2ccc(Cl)cc2)N1Br ?
active

What call does the record list for Nc1ccc2ccccc2c1N=Nc1ccccc1 ?
inactive

What call does the record list for CCCn1cnc2c(=S)nc(N)[nH]c21 ?
inactive

What call does the record list for CN(C)c1ccc(C=C(C#N)C#N)cc1 ?
inactive

----------
T/C listing for selected compounds.
system: BDF1 mice, P388 leukemia ip, median survival T/C; assay: NCI In Vivo Anticancer Drug Screen. Data for tumor model P388 Leukemia (intraperitoneal) in B6D2F1 (BDF1) mice; settings: endpoint: median survival time; dose: 50.0 mg/kg/injection; schedule: Q01DX009 (ip); vehicle: saline with Tween-80; higher = longer survival
Inconclusive results and toxic doses are left out.

Sample records with T/C:
N#C/C(=C\c1cc(Cl)cc(Cl)c1O)c1nc2ccccc2[nH]1 ... 93 % of control
CCCCCC(CN(C)C)C(=O)/C=C/c1cccc(O)c1 (stereo unspecified) ... 106 % of control
CN(C)c1ccc(/C=C/c2ccnc3ccc(Cl)cc23)cc1 ... 100 % of control
Cc1cc(C)nc(NC(N)=NCCc2ccccc2)n1 ... 100 % of control
N#Cc1ccc(CC(O)c2ccc(Cl)cc2)cc1 (stereo unspecified) ... 108 % of control

Proceed to the following item.
Check BDF1 mice, P388 leukemia ip, median survival T/C data and give T/C for CCCCCCNc1c(F)c(C#N)c(F)c(F)c1C#N .
103 % of control

----------
T/C listing for selected compounds.
tested on: BDF1 mice, P388 leukemia ip, median survival T/C; experiment: NCI In Vivo Anticancer Drug Screen. Data for tumor model P388 Leukemia (intraperitoneal) in B6D2F1 (BDF1) mice; details: endpoint: median survival time; dose: 12.5 mg/kg/injection; schedule: Q01DX009 (ip); vehicle: saline with Tween-80; higher = longer survival
Toxic doses and inconclusive results are not listed.

Nc1ccc(OCCCCNC(=O)c2ccc(S(=O)(=O)F)cc2)c(Cl)c1 ... 102 % of control
CN=S(=O)(OCC1CCC1COS(=O)(=NC)c1ccc(C)cc1)c1ccc(C)cc1 (stereo unspecified) ... 109 % of control
Cc1cc(-c2ccc(Cl)cc2)[n+](C)n1C ... 100 % of control

Provide one value: measured T/C of Cc1cc(C)nc(NC(N)=NCCc2ccccc2)n1
100 % of control

Provide one value: measured T/C of FC(F)(F)C1=N/C(=C2\N=C(C(F)(F)F)N=C2Cl)C(Cl)=N1
111 % of control

Provide one value: measured T/C of CC12CCC3c4ccc(OP(=O)(N5CC5)N5CC5)cc4CCC3C1CCC2O (stereo unspecified)
102 % of control
